# Species on record: Homo sapiens
# protocol description: Inhibition of TrxR (unknown origin) at 5 uM by […]-reagent based assay relative to control
metric: inhibition (%)
API: value field is a number in %; no unit string.

In the examples that follow, each entry is paired with its recorded inhibition.
>>> print(df.to_string())
                               entry_smiles      metric  value_observed
0  C[C@@]12CCC[C@@H](O)[C@@H]1CC1=C(C2)C(=O)C=CC1=O  inhibition            34.9
1  C=CC(=O)O[C@@H]1CCC[C@@]2(C)CC3=C(C[C@@H]12)C(=O)C=CC3=O  inhibition            19.7
2  CCc1ccc([C@@]2(O)CCC[C@@]3(C)CC4=C(C[C@H]32)C(=O)C=CC4=O)cc1  inhibition            19.6
3  C[C@@]12CCC[C@@H](C(=O)O)[C@@H]1CC1=C(C2)C(=O)C=CC1=O  inhibition            21.6
4  COc1ccc([C@@]2(O)CCC[C@@]3(C)CC4=C(C[C@H]32)C(=O)C=CC4=O)cc1  inhibition             9.8
5  Cc1ccc([C@@]2(O)CCC[C@@]3(C)CC4=C(C[C@H]32)C(=O)C=CC4=O)cc1  inhibition            11.8
6  C[C@@]12CCC[C@](O)(c3ccc(C(F)(F)F)cc3)[C@@H]1CC1=C(C2)C(=O)C=CC1=O  inhibition            15.7
7  C[C@@]12CCC[C@@H](CO)[C@@H]1CC1=C(C2)C(=O)C=CC1=O  inhibition            13.7

Then this compound:
Could you tell me which inhibition is on file for `C[C@@]12CCC[C@](O)(c3ccccn3)[C@@H]1CC1=C(C2)C(=O)C=CC1=O` ?
23.5
